# reported inhibition at 10 µM; entries follow
System: A549 (lung adenocarcinoma)
test: Antiproliferative activity (CCK-8 cell viability), A549
Assay type: cell-based
testConditions: Homo sapiens, Compound concentration: 10 μM, 72 h, read-out: Antiproliferative activity in cancerous cells, A549 (inhibition of cell growth)

compound | inhibition at 10 µM
CC1=C(CC(=O)O)c2cc(C)ccc2/C1=C\c1cccc(COc2ccccc2)c1 [B12] | ≥ 50%
COc1ccc2c(c1)/C(=C\c1ccc(Oc3ccc(F)cc3)cc1)C(C)=C2CC(=O)O [C1] | < 30%
O=C(O)CC1=C(Cc2ccc(Oc3ccc(F)cc3)cc2)/C(=C/c2ccc(CN3CCOCC3)cc2)c2ccc(F)cc21 [A113] | 30 to 50%
CC1=C(CC(=O)O)c2cc(Cl)ccc2/C1=C\c1cccc(Oc2ccc(Cl)cc2)c1 [C93] | ≥ 50%
CC1=C(CC(=O)O)c2cc(F)ccc2/C1=C/c1cccc(Oc2cccc(Cl)c2)c1 [E26] | < 30%
COc1ccc2c(c1)C(CC(=O)O)=C(C)/C2=C/c1cccc(COc2ccc(F)cc2)c1 [B24] | ≥ 50%
CC1=C(CC(=O)O)c2cc(F)ccc2/C1=C/c1ccc(Oc2ccc(Cl)c(Cl)c2)cc1 [E21] | ≥ 50%
O=C(O)CC1=C/C(=C/c2cccc(COc3ccccc3)c2)c2ccc(F)cc21 [A8] | ≥ 50%
CC1=C(CC(=O)O)c2cc(F)ccc2/C1=C\c1ccc(Oc2ccc(F)c(Br)c2)cc1 [C53] | 30 to 50%
COc1ccc(S(=O)(=O)Cc2ccc(/C=C3\C(C)=C(CC(=O)O)c4cc(F)ccc43)cc2)cc1 [E20] | 30 to 50%
CC1=C(CC(=O)O)c2ccc(F)cc2/C1=C\c1cccc(Oc2ccccc2)c1 [C16] | 30 to 50%
CC1=C(CC(=O)O)c2c(F)cccc2/C1=C\c1cccc(COc2ccccc2)c1 [B13] | 30 to 50%
CC1=C(CC(=O)O)c2cc(F)ccc2/C1=C\c1ccc(Oc2ccc(Cl)cc2)cc1 [C60] | ≥ 50%
COc1cc(Oc2cccc(/C=C3/C(C)=C(CC(=O)O)c4cc(F)ccc43)c2)ccc1Cl [C107] | ≥ 50%
CC1=C(CC(=O)O)c2cc(F)ccc2/C1=C\c1cccc(OC2CCC(F)(F)CC2)c1 [C206] | ≥ 50%
CC1=C(CC(=O)O)c2cc(F)ccc2/C1=C\c1ccc(Oc2ccc(F)cc2Cl)cc1 [C68] | ≥ 50%
CC1=C(CCC(=O)O)c2ccccc2/C1=C/c1cccc(Oc2ccccc2)c1 [E10] | 30 to 50%
CC1=C(CC(=O)O)c2cc(F)ccc2/C1=C\c1cccc(Oc2ccc(O)c(Cl)c2)c1 [C103] | ≥ 50%
CC1=C(CC(O)CO)c2ccccc2/C1=C\c1ccc(Oc2ccc(F)cc2)cc1 (stereo not shown) [A203] | ≥ 50%
CC1=C(CC(=O)O)c2cc(F)ccc2/C1=C\c1cccc(CS(=O)(=O)c2ccc(F)cc2)c1 [B51] | 30 to 50%
CC1=C(CC(=O)O)c2cc(F)ccc2/C1=C\c1ccc(C(=O)c2ccccc2)cc1 [C307] | ≥ 50%
CC1=C(CC(=O)O)c2cc(F)ccc2/C1=C\c1cccc(Oc2ccc(I)cc2)c1 [C100] | 30 to 50%

---

Tested on: A431 (epidermoid carcinoma)
test: Antiproliferative activity (CCK-8 cell viability), A431
Type: cell-based
testConditions: Homo sapiens, A-431, Compound concentration: 10 μM, 72 h, read-out: Antiproliferative activity in cancerous cells, A431 (inhibition of cell growth)
# reported inhibition at 10 µM; entries follow

compound | assayedTarget | inhibition at 10 µM
CC1=C(CC(=O)O)c2cc(F)ccc2/C1=C\c1cccc(C2(c3ccccc3)SCCS2)c1 [C352] | A431 (epidermoid carcinoma) | ≥ 50%
O=C(O)CC1=C(Cc2ccc(C(F)(F)F)cc2)/C(=C/c2ccc(Oc3ccc(F)cc3)cc2)c2ccc(F)cc21 [C11] | A431 (epidermoid carcinoma) | ≥ 50%
CC1=C(CC(=O)O)c2cc(F)ccc2/C1=C\c1ccc(OCCc2ccc(Cl)cc2)cc1 [B35] | A431 (epidermoid carcinoma) | ≥ 50%

Values from patent US20260184663A1
